SUBJECT OF TEST: T1, AFP158/HLA-A*02:01 complex (human)
T1 construct: flowed as analyte in SPR
TEST SUMMARY: SPR, crude scFv captured, pMHC analyte;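 further: complex injected at several concentrations over the chip, association phase then running buffer for dissociation, KD derived from on- and off-rates computed from both curves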
koff listing for selected binders.
Give the quantity in s⁻¹, number only.

Worked cases, answers included:
{"BINDER": "AS170036 VL1VH1-57K98F108D (scFv, also called 68-AS170036 VL1VH1-57K98F108D) scFv: QSALTQPRSVSGSPGQSVTISCAGTSSDVGSENYVSWYQQHPGKAPKLMIYQVNKRASGVPDRFSGSKSGNTASLTISGLQAEDEADYYCASYRSSDFNIVFGGGTKLTVLGGGGSGGGGSGGGGSEVQLVESGGGLVQPGGSLRLSCAASGFTFSSYAMSWVRQAPGKGLEWVSTINSGTGKPYYADSVKGRFTISRDNSKNTLYLQMNSLRAEDTAVYYCAKNFFDGSWFLDPPAMDYWGQGTLVTVSSHHHHHH", "koff (s⁻¹)": 0.001}
{"BINDER": "AS170036 VL1VH1-57K98Q108A (scFv, also called 73-AS170036 VL1VH1-57K98Q108A) scFv: QSALTQPRSVSGSPGQSVTISCAGTSSDVGSENYVSWYQQHPGKAPKLMIYQVNKRASGVPDRFSGSKSGNTASLTISGLQAEDEADYYCASYRSSDQNIVFGGGTKLTVLGGGGSGGGGSGGGGSEVQLVESGGGLVQPGGSLRLSCAASGFTFSSYAMSWVRQAPGKGLEWVSTINSGTGKPYYADSVKGRFTISRDNSKNTLYLQMNSLRAEDTAVYYCAKNFFDGSWFLAPPAMDYWGQGTLVTVSSHHHHHH", "koff (s⁻¹)": 0.00053}
{"BINDER": "AS170036 VL1VH1-57H98F108A (scFv, also called 58-AS170036 VL1VH1-57H98F108A) scFv: QSALTQPRSVSGSPGQSVTISCAGTSSDVGSENYVSWYQQHPGKAPKLMIYQVNKRASGVPDRFSGSKSGNTASLTISGLQAEDEADYYCASYRSSDFNIVFGGGTKLTVLGGGGSGGGGSGGGGSEVQLVESGGGLVQPGGSLRLSCAASGFTFSSYAMSWVRQAPGKGLEWVSTINSGTGHPYYADSVKGRFTISRDNSKNTLYLQMNSLRAEDTAVYYCAKNFFDGSWFLAPPAMDYWGQGTLVTVSSHHHHHH", "koff (s⁻¹)": 0.0004}

Field koff (entry AS170036 VL1VH1-56Y98Q108S (scFv, also called 48-AS170036 VL1VH1-56Y98Q108S) scFv: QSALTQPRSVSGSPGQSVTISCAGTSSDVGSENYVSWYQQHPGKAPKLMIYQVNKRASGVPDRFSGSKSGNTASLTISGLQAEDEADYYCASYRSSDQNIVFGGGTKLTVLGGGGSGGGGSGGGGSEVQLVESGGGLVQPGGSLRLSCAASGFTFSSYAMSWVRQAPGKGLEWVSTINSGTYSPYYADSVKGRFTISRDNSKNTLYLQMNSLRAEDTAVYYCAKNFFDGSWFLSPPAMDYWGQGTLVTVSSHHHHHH ) reads 0.00055

For this binder ( AS170036 VL1VH1-56N98I108D (scFv, also called 53-AS170036 VL1VH1-56N98I108D) scFv: QSALTQPRSVSGSPGQSVTISCAGTSSDVGSENYVSWYQQHPGKAPKLMIYQVNKRASGVPDRFSGSKSGNTASLTISGLQAEDEADYYCASYRSSDINIVFGGGTKLTVLGGGGSGGGGSGGGGSEVQLVESGGGLVQPGGSLRLSCAASGFTFSSYAMSWVRQAPGKGLEWVSTINSGTNSPYYADSVKGRFTISRDNSKNTLYLQMNSLRAEDTAVYYCAKNFFDGSWFLDPPAMDYWGQGTLVTVSSHHHHHH ), measured koff is 0.0014

Record AS170036 VL1VH1-56N98I108A (scFv, also called 52-AS170036 VL1VH1-56N98I108A) scFv: QSALTQPRSVSGSPGQSVTISCAGTSSDVGSENYVSWYQQHPGKAPKLMIYQVNKRASGVPDRFSGSKSGNTASLTISGLQAEDEADYYCASYRSSDINIVFGGGTKLTVLGGGGSGGGGSGGGGSEVQLVESGGGLVQPGGSLRLSCAASGFTFSSYAMSWVRQAPGKGLEWVSTINSGTNSPYYADSVKGRFTISRDNSKNTLYLQMNSLRAEDTAVYYCAKNFFDGSWFLAPPAMDYWGQGTLVTVSSHHHHHH , field koff: 0.00093

Quick note, koff for AS170036 VL1VH1-57H98F108D (scFv, also called 59-AS170036 VL1VH1-57H98F108D) scFv: QSALTQPRSVSGSPGQSVTISCAGTSSDVGSENYVSWYQQHPGKAPKLMIYQVNKRASGVPDRFSGSKSGNTASLTISGLQAEDEADYYCASYRSSDFNIVFGGGTKLTVLGGGGSGGGGSGGGGSEVQLVESGGGLVQPGGSLRLSCAASGFTFSSYAMSWVRQAPGKGLEWVSTINSGTGHPYYADSVKGRFTISRDNSKNTLYLQMNSLRAEDTAVYYCAKNFFDGSWFLDPPAMDYWGQGTLVTVSSHHHHHH landed at 0.00053

// AS170036 VL1VH1-57H98Q108D (scFv, also called 65-AS170036 VL1VH1-57H98Q108D) scFv: QSALTQPRSVSGSPGQSVTISCAGTSSDVGSENYVSWYQQHPGKAPKLMIYQVNKRASGVPDRFSGSKSGNTASLTISGLQAEDEADYYCASYRSSDQNIVFGGGTKLTVLGGGGSGGGGSGGGGSEVQLVESGGGLVQPGGSLRLSCAASGFTFSSYAMSWVRQAPGKGLEWVSTINSGTGHPYYADSVKGRFTISRDNSKNTLYLQMNSLRAEDTAVYYCAKNFFDGSWFLDPPAMDYWGQGTLVTVSSHHHHHH : koff value = 0.00063

For record AS170036 VL1VH1-57M98F108D (scFv, also called 77-AS170036 VL1VH1-57M98F108D) scFv: QSALTQPRSVSGSPGQSVTISCAGTSSDVGSENYVSWYQQHPGKAPKLMIYQVNKRASGVPDRFSGSKSGNTASLTISGLQAEDEADYYCASYRSSDFNIVFGGGTKLTVLGGGGSGGGGSGGGGSEVQLVESGGGLVQPGGSLRLSCAASGFTFSSYAMSWVRQAPGKGLEWVSTINSGTGMPYYADSVKGRFTISRDNSKNTLYLQMNSLRAEDTAVYYCAKNFFDGSWFLDPPAMDYWGQGTLVTVSSHHHHHH the listed koff is 0.0018

// data source = patent US20240279318A1
